assay: yeast display, Sf9 membrane polyspecificity reagent, FACS + sequencing; frameworks hold sequencing errors
recorded_metric: polyreactivity (PSR sort gate)

- residue_sequence: "QVQLVESGGGLVQAGGSLRLSCAASGRTFRYYTMGWYRQAPGKERELVAAITRNGGRTYYADSVKGRFTISRDNAKNTVDLQMNSLKPEDPAVYYCAPGTYDGGYHYDYWGQGTQVTVSS"
  obs_value: "high polyreactivity"
- residue_sequence: "QVQLVESGGGLVQAGGSLRLSCAASGSIFSYYTMGWYRQAPGKERELVAAITKSGGSTYYADSVKGRFTISRDNAKNTVYLQMNSLKPEDTAVYYCAASYGGYPKGNYWGQGTQVTVSS"
  obs_value: "high polyreactivity"
- residue_sequence: "QVQLVESGGGLVQAGGSLRLSCAASGRTLPIYAMGWYRQAPGKERELVAAISWSGASTYADSVKGRFTISRDNAKYTVYLQMNSLKPEDTAVYYCAAYYESWYSSYGYGYWGQGTQVTVSS"
  obs_value: "low polyreactivity"
- residue_sequence: "QVQLVESGGGLVQAGGSLRLSCAASGIIFYENAMGWYRQAPGKERELVAAIDGDDGGTDYADSVKGRFTISRDNAKNTVYLQMNSLKPEDTAVYYCAADFGAETGYYYWGQGTQVTVSS"
  obs_value: "low polyreactivity"
- residue_sequence: "KVQLVESGGGLVQAGGSLRLSCAASGITLSYYAMGWYSQAPGKEMELVAAINRGGRTYYADSVTGRFTISRDNAKNTVYLQMNSLKPEDTAVYYCATAYASSQKYYYWGQGTQVTVSS"
  obs_value: "high polyreactivity"
- residue_sequence: "QVQLVESGGGLVQAGGSLRLSCAASGLILYNYAMGWYRQAPGKERELVAAISRSGGSTYYADSVKGRFTISRDNAKNTVYLQMNSLKPEDTAVYYCKVGYGRGSTIGGYDYWGQGTQVTVSS"
  obs_value: "high polyreactivity"
- residue_sequence: "QFQLVESGGGLVQAGGSLRLSCAASGYTFAVNTMGWYRQAPGKESELVAAITLGGGSTYYADSVKGRFTISRDNAKNTVYLQMNSLKPEDTAVYYCATDPVDYRGWWRGYKYDYWGQGTQVTVSS"
  obs_value: "low polyreactivity"
- residue_sequence: "QDQLVDSGGGLVQAGGSLRLSCAASGRTFYTYAMGWYRQAPGKEREFVARISKRGGGTYYADSVKGRFTISRENAKNTVDLQMNSLIPEDTAVYYCNAGVPSAMDYWGQGTQLTVSS"
  obs_value: "high polyreactivity"
- residue_sequence: "HVLLVESGGGLVQAGGSLRLSFAATAFTFTYYTMGSYRQAPGKETELVAAITSSGGSTYYADSVMGRFTISRDNANNTVYLQMNSLKPEDTAVYYCAASRYSTRFGARVYWGQVTQVTVSS"
  obs_value: "high polyreactivity"
- residue_sequence: "QVQLVESGGGLVQAGGSLRLSCAASGFIFYAMGWYRQAPGKERELVAAITLSDGTTYYADSVKGRFTISRDNAKNTVYLQMNSLKPEDTAVYYCAAEYSVPYRGWDGYEYWGQGTQVTVSS"
  obs_value: "low polyreactivity"
- residue_sequence: "QVQLVESGGGLVQEGGSLRLTCAASGITFIYYAMGWYRQAPGKERELVAAISTGGSTYYADSVKGRCTISRDNAMNTVYLQMISLKPEDTAVYYWNALRKSLRGGDYWGQGTQVTVSS"
  obs_value: "high polyreactivity"
- residue_sequence: "QVQLVESGGGLVQAGGSLRLSCAASGITFPRYAMGGYRPAPGKERELVATITRTGRTNYADSVKGRFTISRDNAKNTVYLQKNSLKPEDTPVYYCAARNRRERKGKMDYWGQGTQVTVSS"
  obs_value: "high polyreactivity"
- residue_sequence: "QVQLVESGGGLVQAGGSLRLSCAASGSIFGDYAMGWYRQAPGKEREFVAGITRRGGRTYYADSVKGRFTISRDNAKNTVYLQMNSLKPEDTAVYYCNAVYSSSLRSKYDYWGQGTQVTVSS"
  obs_value: "high polyreactivity"
- residue_sequence: "QVQLVESGGGLVQAGGSLRLSCAASGRTFHSNAMGWYRQAPGNDRELVASSRRGSRTYYADSVKGRFTISRDNAKNTVSLQLTSLKPEDTAVYYCAAAQVGYYVGSVTYGYWGQATQVTVSS"
  obs_value: "high polyreactivity"
- residue_sequence: "QVQLVESGGGLVQAGGSLRLSCAASGFTAVGNAMGWYRPAPGKERELVASITNGGSTNYADSVKGRFTISRDNAKNTVYIQMNSLKPEDTAVYYCATDTYFDYTGALSHSGYYYWGQGTQVTVSS"
  obs_value: "low polyreactivity"
- residue_sequence: "QVQLVESGGGLVQAGGSLRLSCAASGSIFFLYAMGWYRQAPGKERELVAAISLSTGNTYYADSVKGRFTISRDNAKNTVYLQMNSLKPEDSAVYYCAATYVSISYRYDYWGQGTQVTVSS"
  obs_value: "high polyreactivity"
- residue_sequence: "QVQLVESGGGLVQAGGSLRLTCAASGSTLSTYVMGWYRQAPGKERELVAAITRRGGITYYADSVKGRFTISRDNAKNTVYLQMNSLKPEDTAVYYCAATGVRSKRLASQWKLYYWGQGTQVTVSS"
  obs_value: "high polyreactivity"
- residue_sequence: "QVQLVESGGGLDQAGGSLRLSWAASGSIFTIYAMGWYRQAPGKERELVAAISRRGGSTYYADSVKGRFTISRDNSKNTVYLQMNSLKPEDTAVYYCNADVAPGIFYGYDCWGQGTQVTVSS"
  obs_value: "low polyreactivity"
- residue_sequence: "QVQLVESGGGLVQAGGSLRLSCAASGRIVGLYAKGWYRQAPGKERELVATITRRAGSTYYADSVKGRFTISRDYAKNTVYLLMNSLKPEDTAVYYCAASALRFNSRFSHWYNYWGQGTQVTVSS"
  obs_value: "high polyreactivity"
- residue_sequence: "QVQLVESGGGLVQAGGRLRLSCAASGRIFGYYAMGWYRQAPGKERELVAAISYRGGTTYYADSVKGRFTISRDNAKNTVYLQMNSLKPEDTAVYYCAAAAKSGLDYWGQGTQVTVSS"
  obs_value: "high polyreactivity"
- residue_sequence: "QVQLVESGGGLVQAGGSLRLSCAASGSTLFNYTMGWYRQAPGKESELVAAISSGGSTNYADSEKGRFTISRDNAKNTFYLQMNSLKPEDTAVYYCATDHDPWSWYRYDYWGQGTQVTVSS"
  obs_value: "low polyreactivity"
